Taken from patent EP0114128A1.

Task for the reader: assign each of the following molecules its reported MIC.
System: Escherichia Coli TEM
Experiment: In vitro activity, dilution method in liquid medium (MIC)
Type: cell-based
Conditions: 24 h, read-out: concentrations minimales inhibitrices (C. M. I.)
Source text: Etude pharmacologiaue des produits de l'invention. Activité in vitro, méthode des dilutions en milieu liquide. On prépare une série de tubes dans lesquels on répartit une même quantité de milieu nutritif stérile. On distribue dans chaque tube des quantités croissantes du produit à étudier, puis chaque tube est ensemencé avec une souche bactérienne. […]
Answers are plain numbers, in µg/mL.

Below are worked cases with known answers.
C[C@@H]1[C@H](NC(=O)/C(=N\OC(F)F)c2csc(N)n2)C(=O)N1c1nn[nH]n1 (racemic) [Prod. ex. 4]    0.6
C[C@@H]1[C@H](NC(=O)/C(=N\OC(C)(C)C(=O)O)c2csc(N)n2)C(=O)N1c1nn[nH]n1 (racemic) [Prod. ex.7]    1.2
CO/N=C(\C(=O)N[C@@H]1C(=O)N(c2nn[nH]n2)[C@@H]1CF)c1csc(N)n1 (racemic) [Prod. ex. 11]    0.6
CO/N=C(\C(=O)N[C@H]1CN(c2nn[nH]n2)C1=O)c1csc(N)n1 [Prod. ex.3]    10
CO/N=C(\C(=O)N[C@@H]1C(=O)N(c2nn[nH]n2)[C@@H]1C)c1csc(N)n1 (racemic) [Prod. ex. 1]    0.6
C[C@@H]1[C@H](NC(=O)/C(=N\OCC(=O)O)c2csc(N)n2)C(=O)N1c1nn[nH]n1 (racemic) [Prod. ex. 6]    0.6

// next item, MIC requested
Query: Complete the entry with MIC for CO/N=C(\C(=O)N[C@@H]1C(=O)N(c2nn[nH]n2)[C@H]1C)c1csc(N)n1 (racemic) [Prod. ex. 2]
Response: 10

* * *

For each of the compounds below, state its MIC.
Tested on: Escherichia Coli 1507 E
Assay: In vitro activity, dilution method in liquid medium (MIC)
Type: cell-based
Conditions: COLI1507E, 48 H incubation at 37°C, read-out: concentrations minimales inhibitrices (C. M. I.)
Excerpt: Etude pharmacologiaue des produits de l'invention. Activité in vitro, méthode des dilutions en milieu liquide. On prépare une série de tubes dans lesquels on répartit une même quantité de milieu nutritif stérile. On distribue dans chaque tube des quantités croissantes du produit à étudier, puis chaque tube est ensemencé avec une souche bactérienne. […]
One number for each entry, in µg/mL.

Example cases with answers are listed next.
C[C@@H]1[C@H](NC(=O)/C(=N\OC(F)F)c2csc(N)n2)C(=O)N1c1nn[nH]n1 (racemic) [Prod. ex. 4]    0.15
CO/N=C(\C(=O)N[C@H]1CN(c2nn[nH]n2)C1=O)c1csc(N)n1 [Prod. ex.3]    0.6
C[C@@H]1[C@H](NC(=O)/C(=N\OC(C)(C)C(=O)O)c2csc(N)n2)C(=O)N1c1nn[nH]n1 (racemic) [Prod. ex.7]    1.2

Query: Please list MIC recorded for the compound C[C@@H]1[C@H](NC(=O)/C(=N\OCC(=O)O)c2csc(N)n2)C(=O)N1c1nn[nH]n1 (racemic) [Prod. ex. 6]
Response: 0.6

* * *

System: Escherichia Coli 1507 E
Assay: In vitro activity, dilution method in liquid medium (MIC)
Assay type: cell-based
Conditions: COLI1507E, 48 H incubation at 37°C, read-out: concentrations minimales inhibitrices (C. M. I.)
Exercise: state measured MIC for each of the compounds provided.
Give bare numbers, in µg/mL.

CO/N=C(\C(=O)N[C@@H]1C(=O)N(c2nn[nH]n2)[C@@H]1C)c1csc(N)n1 (racemic) [Prod. ex. 1]    0.3

// each listed compound needs a value for MIC
1. CO/N=C(\C(=O)N[C@@H]1C(=O)N(c2nn[nH]n2)[C@H]1C)c1csc(N)n1 (racemic) [Prod. ex. 2]
2. CO/N=C(\C(=O)N[C@@H]1C(=O)N(c2nn[nH]n2)[C@@H]1CF)c1csc(N)n1 (racemic) [Prod. ex. 11]

Response:
1: 0.6; 2: 0.08

* * *

Test system: Escherichia Coli 078
Assay: In vitro activity, dilution method in liquid medium (MIC)
Type: cell-based
Conditions: COLI078, 24 H incubation at 37°C, read-out: concentrations minimales inhibitrices (C. M. I.)
Measurement kind: MIC (µg/mL)
One number for each entry, in µg/mL.

Illustrative cases are given below, each with its answer.
CO/N=C(\C(=O)N[C@H]1CN(c2nn[nH]n2)C1=O)c1csc(N)n1    0.3
C[C@@H]1[C@H](NC(=O)/C(=N\OC(C)(C)C(=O)O)c2csc(N)n2)C(=O)N1c1nn[nH]n1 (racemic)    0.3
CO/N=C(\C(=O)N[C@@H]1C(=O)N(c2nn[nH]n2)[C@H]1C)c1csc(N)n1 (racemic)    0.6
C[C@@H]1[C@H](NC(=O)/C(=N\OCC(=O)O)c2csc(N)n2)C(=O)N1c1nn[nH]n1 (racemic)    0.3

Hi team, please reply with MIC for each item in this list.
1. C[C@@H]1[C@H](NC(=O)/C(=N\OC(F)F)c2csc(N)n2)C(=O)N1c1nn[nH]n1 (racemic)
2. CO/N=C(\C(=O)N[C@@H]1C(=O)N(c2nn[nH]n2)[C@@H]1C)c1csc(N)n1 (racemic)
3. CO/N=C(\C(=O)N[C@@H]1C(=O)N(c2nn[nH]n2)[C@@H]1CF)c1csc(N)n1 (racemic)

Response:
[0.3, 0.3, 0.15]

* * *

Tested on: Escherichia Coli 078
Assay: In vitro activity, dilution method in liquid medium (MIC)
Format: cell-based
Conditions: COLI078, 48 H incubation at 37°C, read-out: concentrations minimales inhibitrices (C. M. I.)
Measurement kind: MIC (µg/mL)
Numbers only, in µg/mL.

CO/N=C(\C(=O)N[C@@H]1C(=O)N(c2nn[nH]n2)[C@@H]1C)c1csc(N)n1 (racemic)    0.3

For every listed record, write down its MIC.
1. C[C@@H]1[C@H](NC(=O)/C(=N\OC(C)(C)C(=O)O)c2csc(N)n2)C(=O)N1c1nn[nH]n1 (racemic)
2. C[C@@H]1[C@H](NC(=O)/C(=N\OC(F)F)c2csc(N)n2)C(=O)N1c1nn[nH]n1 (racemic)

Response:
[0.6, 0.3]

Dear colleague, could you please provide MIC for the compounds listed below?
1. C[C@@H]1[C@H](NC(=O)/C(=N\OCC(=O)O)c2csc(N)n2)C(=O)N1c1nn[nH]n1 (racemic)
2. CO/N=C(\C(=O)N[C@H]1CN(c2nn[nH]n2)C1=O)c1csc(N)n1
3. CO/N=C(\C(=O)N[C@@H]1C(=O)N(c2nn[nH]n2)[C@@H]1CF)c1csc(N)n1 (racemic)
4. CO/N=C(\C(=O)N[C@@H]1C(=O)N(c2nn[nH]n2)[C@H]1C)c1csc(N)n1 (racemic)

Response:
[0.3, 0.3, 0.15, 0.6]

* * *

Exercise: for every item that follows, state its recorded MIC.
System: Enterobacter cloacae 1321 E
Test: In vitro activity, dilution method in liquid medium (MIC)
Type: cell-based
Settings: 48 H incubation at 37°C, read-out: concentrations minimales inhibitrices (C. M. I.)
Please don't drop the unit; write it after the number.

Consider the worked cases shown below.
CO/N=C(\C(=O)N[C@@H]1C(=O)N(c2nn[nH]n2)[C@@H]1C)c1csc(N)n1 (racemic)    0.6 µg/mL
CO/N=C(\C(=O)N[C@@H]1C(=O)N(c2nn[nH]n2)[C@H]1C)c1csc(N)n1 (racemic)    1.2 µg/mL
CO/N=C(\C(=O)N[C@@H]1C(=O)N(c2nn[nH]n2)[C@@H]1CF)c1csc(N)n1 (racemic)    0.3 µg/mL

Query: Give Enterobacter cloacae 1321 E MIC for the following molecule: C[C@@H]1[C@H](NC(=O)/C(=N\OC(C)(C)C(=O)O)c2csc(N)n2)C(=O)N1c1nn[nH]n1 (racemic)
Response: 2.5 µg/mL

* * *

Would you mind telling me the reported MIC of each entry?
Tested on: Escherichia Coli 1894
Experiment: In vitro activity, dilution method in liquid medium (MIC)
Type: cell-based
Conditions: COLI1894, 48 H incubation at 37°C, read-out: concentrations minimales inhibitrices (C. M. I.)

I have 7 molecules here; please give me MIC for each one.
1. C[C@@H]1[C@H](NC(=O)/C(=N\OC(C)(C)C(=O)O)c2csc(N)n2)C(=O)N1c1nn[nH]n1 (racemic)
2. C[C@@H]1[C@H](NC(=O)/C(=N\OC(F)F)c2csc(N)n2)C(=O)N1c1nn[nH]n1 (racemic)
3. CO/N=C(\C(=O)N[C@@H]1C(=O)N(c2nn[nH]n2)[C@@H]1CF)c1csc(N)n1 (racemic)
4. C[C@@H]1[C@H](NC(=O)/C(=N\OCC(=O)O)c2csc(N)n2)C(=O)N1c1nn[nH]n1 (racemic)
5. CO/N=C(\C(=O)N[C@@H]1C(=O)N(c2nn[nH]n2)[C@H]1C)c1csc(N)n1 (racemic)
6. CO/N=C(\C(=O)N[C@@H]1C(=O)N(c2nn[nH]n2)[C@@H]1C)c1csc(N)n1 (racemic)
7. CO/N=C(\C(=O)N[C@H]1CN(c2nn[nH]n2)C1=O)c1csc(N)n1

Response:
1. 0.6 µg/mL
2. ≤ 0.04 µg/mL
3. ≤ 0.04 µg/mL
4. 0.6 µg/mL
5. 0.3 µg/mL
6. 0.08 µg/mL
7. 0.15 µg/mL
